- MEASUREMENT TARGET: IRAK4 (Homo sapiens, UniProt Q9NWZ3)
- Construct: endogenous in cells; host or cells: Karpas299
- Sequence (Q9NWZ3 whole entry): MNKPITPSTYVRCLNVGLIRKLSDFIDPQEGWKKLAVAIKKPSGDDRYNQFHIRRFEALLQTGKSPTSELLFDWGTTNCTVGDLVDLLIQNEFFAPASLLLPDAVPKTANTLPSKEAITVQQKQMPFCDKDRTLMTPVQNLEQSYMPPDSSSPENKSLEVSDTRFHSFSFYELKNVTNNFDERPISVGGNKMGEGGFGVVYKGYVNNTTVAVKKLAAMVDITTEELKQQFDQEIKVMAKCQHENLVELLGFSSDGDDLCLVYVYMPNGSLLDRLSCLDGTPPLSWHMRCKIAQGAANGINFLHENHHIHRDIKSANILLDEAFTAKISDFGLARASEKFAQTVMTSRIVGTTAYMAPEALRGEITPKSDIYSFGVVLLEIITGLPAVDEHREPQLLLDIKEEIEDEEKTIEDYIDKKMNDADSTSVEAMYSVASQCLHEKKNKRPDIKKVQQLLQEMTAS
- ASSAY COMMENT: IRAK4 Degradation Assay (Karpas299, HTRF/TR-FRET)
- Type: cell-based
- CONDITIONS: Karpas-299 cells, 24 h treatment; read-out: IRAK4 in Karpas-299 (24 h) DC50
ASSAY READOUT: DC50 (nM)

1: CC(C)(O)c1cc2nn([C@H]3CC[C@H](N4CCN(C[C@H]5CCN(c6ccc7c(c6)C(=O)N(C6CCC(=O)NC6=O)C7=O)C5)CC4)CC3)cc2cc1NC(=O)c1ccc2cc(C#N)cnn12 (stereo partly shown)
2: C[C@@H]1CN([C@H]2CC[C@H](n3cc4cc(NC(=O)c5ccc6cc(C#N)cnn56)c(C(C)(C)O)cc4n3)CC2)CCN1CC1CN(c2cc(F)c([C@H]3CCC(=O)NC3=O)c(F)c2)C1
Exercise: When 1 and 2 are compared, which has the higher number for DC50? Select an item and report its label.
Solution: 1

###

- MEASUREMENT TARGET: IRAK4 (Homo sapiens)
- Construct: endogenous in cells; host or cells: Karpas299
- ASSAY COMMENT: IRAK4 Degradation Assay (Karpas299, HTRF/TR-FRET)
- Type: cell-based
- CONDITIONS: Karpas-299 cells, 24 h treatment; read-out: IRAK4 in Karpas-299 (24 h) DC50
ASSAY READOUT: DC50 (nM)

| LINE NOTATION | DISPLAY UNIT | DC50 |
| --- | --- | --- |
| COc1cc2nn([C@H]3CC[C@H](CN4CCN(C(=O)[C@H]5CCN(c6ccc(N7CCC(=O)NC7=O)cc6)C5)CC4)CC3)cc2cc1NC(=O)c1cccn(C2CC2)c1=O | nM | 3.6 |

P: C[C@@H]1CN([C@H]2CC[C@H](n3cc4cc(NC(=O)c5ccc6cc(C#N)cnn56)c(C(C)(C)O)cc4n3)CC2)CCN1C(=O)C1CN(c2cc(F)c([C@H]3CCC(=O)NC3=O)c(F)c2)C1
Q: O=C1CC[C@H](c2c(F)cc(N3CC[C@@H](C(=O)N4CCN([C@H]5CC[C@H](n6cc7cc(NC(=O)c8cccc(C(F)(F)F)n8)c(C(=O)N[C@H]8C[C@H](CO)C8)cc7n6)CC5)CC4)C3)cc2F)C(=O)N1
Exercise: Field: lower DC50 | Options: P / Q // output: label of the selected item
Solution: P

###

- MEASUREMENT TARGET: IRAK4 (Homo sapiens)
- Construct: endogenous in cells; host or cells: Karpas299
- ASSAY COMMENT: IRAK4 Degradation Assay (Karpas299, HTRF/TR-FRET)
- Type: cell-based
- CONDITIONS: Karpas-299 cells, 24 h treatment; maximum percentage of degradation; read-out: IRAK4 in Karpas-299 (24 h) Dmax (%)
ASSAY READOUT: Dmax (%)

| LINE NOTATION | MEASUREMENT TARGET | Dmax (%) |
| --- | --- | --- |
| CC(C)(O)c1cc2nn(C3CCN([C@@H]4CCN(C(=O)C5CN(c6cc(F)c([C@H]7CCC(=O)NC7=O)c(F)c6)C5)CC4(F)F)CC3)cc2cc1NC(=O)c1ccc2cc(C#N)cnn12 | IRAK4 (Homo sapiens) | 96 |
| O=C1CC[C@H](c2c(F)cc(N3CC(CN4CCN([C@H]5CC[C@H](n6cc(NC(=O)c7coc(-c8ccnc(NCC(F)(F)F)c8)n7)c(C(F)F)n6)CC5)CC4)C3)cc2F)C(=O)N1 | IRAK4 (Homo sapiens) | 95 |
| CCc1cc(N2CC(C(=O)N3CCN([C@H]4CC[C@H](n5cc6cc(NC(=O)c7ccc8cc(C#N)cnn78)c(C(C)(C)O)cc6n5)CC4)CC3)C2)ccc1N1CCC(=O)NC1=O | IRAK4 (Homo sapiens) | 97 |
| COC[C@H]1CN(CC2CN(c3cc(F)c([C@H]4CCC(=O)NC4=O)c(F)c3)C2)CCN1[C@H]1CC[C@H](n2cc3cc(NC(=O)c4ccc5cc(C#N)cnn45)c(C(C)(C)O)cc3n2)CC1 | IRAK4 (Homo sapiens) | 97 |
| Cc1cc(N2CCC(N3CCN([C@H]4CC[C@H](n5cc6cc(NC(=O)c7ccc8cc(C#N)cnn78)c(C(C)(C)O)cc6n5)CC4)CC3)CC2)cc(C)c1[C@H]1CCC(=O)NC1=O | IRAK4 (Homo sapiens) | 98 |
| O=C1CCN(c2ccc(N3CC(C(=O)N4CCN([C@H]5CC[C@H](n6cc(NC(=O)c7coc(-c8ccnc(NCC9CC9)c8)n7)c(C(F)F)n6)CC5)CC4)C3)cc2)C(=O)N1 | IRAK4 (Homo sapiens) | 98 |
| COc1cc(N2CC(C(=O)N3CCN([C@H]4CC[C@H](n5cc6cc(NC(=O)c7ccc8cc(C#N)cnn78)c(C(C)(C)O)cc6n5)CC4)CC3)C2)cc(F)c1N1CCC(=O)NC1=O | IRAK4 (Homo sapiens) | 97 |
| CC(C)(O)c1cc2nn(C34CCC(N5CCN(C(=O)C6CN(c7cc(F)c([C@H]8CCC(=O)NC8=O)c(F)c7)C6)CC5)(CC3)CC4)cc2cc1NC(=O)c1ccc2cc(C#N)cnn12 | IRAK4 (Homo sapiens) | 97 |
